Molecular target: CD71 on SK-BR-3 cells (human, UniProt P02786 1-760)
Sequence (P02786 whole entry): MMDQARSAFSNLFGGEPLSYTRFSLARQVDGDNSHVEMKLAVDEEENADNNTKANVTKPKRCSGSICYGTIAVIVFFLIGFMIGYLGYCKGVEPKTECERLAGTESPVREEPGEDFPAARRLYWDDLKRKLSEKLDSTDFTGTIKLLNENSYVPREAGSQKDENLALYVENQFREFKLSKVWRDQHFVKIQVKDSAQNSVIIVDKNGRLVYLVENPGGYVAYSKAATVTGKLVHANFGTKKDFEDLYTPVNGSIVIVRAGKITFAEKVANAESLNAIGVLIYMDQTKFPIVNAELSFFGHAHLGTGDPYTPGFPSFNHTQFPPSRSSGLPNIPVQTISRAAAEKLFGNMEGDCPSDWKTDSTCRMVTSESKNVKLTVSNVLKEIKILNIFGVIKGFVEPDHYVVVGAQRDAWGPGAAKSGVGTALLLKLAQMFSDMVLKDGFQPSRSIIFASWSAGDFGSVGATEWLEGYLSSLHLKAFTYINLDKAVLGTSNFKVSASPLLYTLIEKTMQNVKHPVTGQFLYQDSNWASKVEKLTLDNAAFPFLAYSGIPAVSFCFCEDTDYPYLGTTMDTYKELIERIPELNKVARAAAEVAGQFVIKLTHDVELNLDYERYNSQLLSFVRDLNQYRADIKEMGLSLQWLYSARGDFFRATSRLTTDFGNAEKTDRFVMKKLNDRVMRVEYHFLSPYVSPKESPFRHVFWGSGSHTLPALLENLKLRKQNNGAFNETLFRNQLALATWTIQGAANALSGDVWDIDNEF
Experiment: cell-based or functional assay
propertyLabel: IC50, SK-BR3 viability, MMAF conjugate, no competitor (nM)
Give a bare numeral; the unit nM is implied.

Recorded results for 2 binders are shown here.
SEQ ID NO 34 (designed binder, FN3 domain) MLPAPKNLVVSRVTEDSARLSWTAPDAAFDSFAITYIEWWDVGEAIGLKVPGSERSYDLTGLKPGTEYRVHIQGVKGGNNSYPLDALFTT : 1.3
SEQ ID NO 39 (designed binder, FN3 domain) MLPAPKNLVVSRVTEDSARLSWTAPDAAFDSFDIDYREWWTLGEAIVLTVPGSERSYDLTGLKPGTEYYVNIQGVKGGLRSYPLSAIFTT : 1.2

(Q) If you can, please state the reported IC50, SK-BR3 viability, MMAF conjugate, no competitor value of SEQ ID NO 43 (designed binder, FN3 domain) MLPAPKNLVVSRVTEDSARLSWTAPDAAFDSFYIEYYESYPGGEAIVLTVPGSERSYDLTGLKPGTEYDVYIYGVKGGYWSRPLSAIFTT .
(A) 0.97

Provenance of the data: patent US20210145976A1
